- SYSTEM: control CAR 2, expressed on T cells
- ASSAY_TEXT: flow cytometry histogram; hybridoma clonal supernatant on control CAR 2-expressing T cells, detected with FITC goat anti-rabbit F(ab')2; fraction of events in the CAR+ gate
The reader will find reported CAR+ values listed item by item below.

# BINDER, CAR+
rows = [
    ("KIP-10 Clone 147-1 (antibody, V domains shown) VH: QEQLEESGGDLVKPEGSLTLTCTASGFSFSGDYYMCWVRQAPGKGLEWIACIYVGSYIYSFYASWAKGRFTISRTSSTTVTLQMTSLTAADTATYFCARDPFATDSDVVSLWGPGTLVTVSS VL: AVVLTQTPASVSAAVGGTVTINCQASQSISTVLAWYQQKPGQRPKLLIYWASTLASGVPSRFKGSGSGTQFTLTISGVECDDAATYYCAGYKSYSNDDGAFGGGTEVVVK", 0.053),
    ("KIP-10 Clone 148-4 (antibody, V domains shown) VH: QEQLEESGGDLVKPEGSLTLTCTASGFSFSGSFDVCWVRQAPGKGLEWIACIVVDSSDRTWYASWAKGRFTISKPSSTTVTLQMTSLTAADTATYFCARNDDTSGWGFNLWGPGTLVTVSS VL: DVTMTQTPASVSEPVGGTVTIKCQASQSIGSALAWYQQKPGQPPKLLIWTASNLASGVSSRFKGSRSGTDFTLTISDLECADAATYYCQCTYYGSSYINAFGGGTEVVVK", 0.021),
    ("KIP-10 Clone 15-2 (antibody, V domains shown) VH: QEQLVESGGGLVKPGASLTLTCKASGFSFSVGYDMCWVRQAPGKGLEWIACIDTDSSSRTWNASWAKGRFTISKPSSTTVTLQMTSLTAADTATYFCARNDDTSGWGSKLWGPGTLVTVSS VL: DVVMTQTPASVSEPVGGTVTIKCQASQTIGSALAWYQQKPGQPPKLLIYTASNLASGVSSRFKGSRSGTEFTLTISDLECADAATYYCQHTFYGTSYVDAFGGGTEVVVK", 0.063),
    ("KIP-10 Clone 103-2 (antibody, V domains shown) VH: QSVEESGGRLVTPGTPLTLTCTVSGFSLGSYYMSWVRQAPGKGLEWIGIIYQSGNTDYASWAKGRFTISKTSSTTVDLKMTSLTTEDTATYFCAREGYAGYVGYSYNIWGPGTLVTVSS VL: AYDMTQTPASVSAAVGGTVSINCQASEDIESYLAWYQQRPGQPPKLLIYSASTLASGVSSRFKGSGSGTQFTLTISDLECADAATYYCQQGASSNDVEEPFGGGTEVVVK", 0.011),
    ("KIP-10 Clone 160-1 (antibody, V domains shown) VH: QSLEESGGDLVKPGASLTLTCTASGFSFSSNYFVCWVRQAPGKGLEWVGCINPGSGRTYSASWAKGRFTISKSSSTTVTLQMTSLTAADTATYFCARDRPGSDDYYMRDLWGPGTLVTVSS VL: DPVMTQTPASVSEPVGGTVTINCQASESIGSSLAWYQQKPGQPPKLLIYAASTLASGVSSRFKGSGSGTQFTLTISDLECADAATYYCQCSYYLNTYVGNPFGGGTEVVVK", 0.021),
    ("KIP-10 Clone 63-2 (antibody, V domains shown) VH: QQQLEESGGGLVKPGGTLTLTCKASGFSFSSDYDMCWVRQAPGKGLEWIACIYAGSSDNTYYATWAKGRFTISKTSSTTVTLQMTSLTAADTATYFCARDTADINFYFKLWGPGTLVTVSS VL: DIVMTQTPASVSAAVGGTVTIKCQASESVSRWLAWYQQKPGQPPNLLIYSASTLASGVPSRFRGSGSGTEYTLTISDLECADAATYYCQGGYYSGGETYHNSFGGGTEVVVK", 0.021),
]
